System Tested: DGKα (Homo sapiens (Human))
Sequence (P23743 whole entry): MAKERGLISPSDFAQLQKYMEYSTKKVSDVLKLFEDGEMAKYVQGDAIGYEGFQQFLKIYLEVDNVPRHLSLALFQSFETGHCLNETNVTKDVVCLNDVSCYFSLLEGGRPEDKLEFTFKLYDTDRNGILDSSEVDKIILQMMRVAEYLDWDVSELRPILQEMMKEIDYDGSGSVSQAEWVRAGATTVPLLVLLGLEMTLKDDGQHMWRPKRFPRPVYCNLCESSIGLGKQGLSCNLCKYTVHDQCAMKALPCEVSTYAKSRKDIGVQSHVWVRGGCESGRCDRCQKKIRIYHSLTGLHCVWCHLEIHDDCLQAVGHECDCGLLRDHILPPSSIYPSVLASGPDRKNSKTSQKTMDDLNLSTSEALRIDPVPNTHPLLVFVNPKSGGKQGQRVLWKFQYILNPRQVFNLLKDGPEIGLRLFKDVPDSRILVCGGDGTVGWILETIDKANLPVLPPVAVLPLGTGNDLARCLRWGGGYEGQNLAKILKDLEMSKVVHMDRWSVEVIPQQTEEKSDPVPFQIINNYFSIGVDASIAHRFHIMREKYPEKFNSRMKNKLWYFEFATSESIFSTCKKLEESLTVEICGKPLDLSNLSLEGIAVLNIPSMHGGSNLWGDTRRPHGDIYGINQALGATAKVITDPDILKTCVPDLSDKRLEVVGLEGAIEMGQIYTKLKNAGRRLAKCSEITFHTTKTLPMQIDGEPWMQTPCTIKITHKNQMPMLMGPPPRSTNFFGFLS
Readout: IC50 (µM)

1: CC[C@H]1CN(C(C)c2cccc(NC(C)=O)c2)[C@H](CC)CN1c1cc(=O)n(C)c2cn(CC#N)nc12 (stereo partly drawn)
2: CC[C@H]1CN(C(C)c2cnc3ccccc3n2)[C@H](CC)CN1c1cc(=O)n(C)c2cn(CC#N)nc12 (single isomer, unassigned) [Compound A155a]
Query :: Between the entries labelled 1 and 2 , which has a larger IC50 value on record? // respond with label for picked entry
Result :: 1
(1: 6.17 µM, 2: 0.728 µM)

* * *

pIC50: −log10 of the molar value.
These compounds were tested on UniProt P23743; pIC50 is the recorded read-out.
Readout: pIC50

Worked cases, pIC50 given:
Compound: CC[C@H]1CN(C(C)c2cccc(C(N)=O)c2)[C@H](CC)CN1c1cc(=O)n(C)c2cn(CC#N)nc12 (stereo partly drawn)
pIC50: 5.42

Compound: CC(c1ccc2nccnc2c1)N1C[C@H](C)N(c2cc(=O)n(C)c3cn(CC#N)nc23)C[C@H]1C (mixture of isomers)
pIC50: 5.11

1: COC(C)c1cc(F)ccc1C(C)N1C[C@H](C)N(c2cc(=O)n(C)c3cn(CC#N)nc23)C[C@H]1C (single isomer, unassigned) [Compound A286b]
2: CC[C@H]1CN(C(C)c2ccc(C(C)(C)C#N)cn2)[C@H](CC)CN1c1cc(=O)n(C)c2cn(CC#N)nc12 (stereo partly drawn)
Query :: Between 1 and 2 , which one shows the smaller pIC50 number? // output: label of the selected item
Result :: 1
(1: 4.29, 2: 6.16)
